B1: tRNA (parent)
chain: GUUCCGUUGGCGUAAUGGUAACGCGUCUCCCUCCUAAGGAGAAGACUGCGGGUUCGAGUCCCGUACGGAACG

Variants of: B1
assay overview: yeast fitness relative to wild type (ratio to wild type); higher = fitter; tRNA-Arg(CCU), competitive growth, 37 C, YPD
Variants at the floor of the assay were thinned out.
endpoint: yeast fitness

Exercise: Item under review: C27G C46U . Reported yeast fitness?
Solution: 0.972

Exercise: Item under review: C34G C49G U54A A57C G68A . Reported yeast fitness?
Solution: ≤ 0.5

Exercise: Item under review: C30G C60U . Reported yeast fitness?
Solution: 0.552

Exercise: Item under review: A14U C27G A36G G52C C61A . Reported yeast fitness?
Solution: ≤ 0.5

Exercise: Item under review: C5U C27G C31G G50C G58C . Reported yeast fitness?
Solution: 0.743

Exercise: Item under review: G63A A69U . Reported yeast fitness?
Solution: 0.856

Exercise: Item under review: U16A A21G C34A C49G C62U . Reported yeast fitness?
Solution: ≤ 0.5

Exercise: Item under review: C11U C34G A42C . Reported yeast fitness?
Solution: ≤ 0.5
